Tested on: SNB-19 CNS
Assay: NCI tumour cell line growth inhibition, 48 h
Where a SMILES comes first, the peptide text is derived from it. [ ]: non-standard residue; d: D form. Phe(4-Cl) = N[CH](Cc1ccc(Cl)cc1)C(=O)O
The compounds listed here are annotated with their TGI.

Observe how each entry below is paired with its result.
Compound	TGI
Cc1nc(N)c(N2CCN(S(N)(=O)=O)CC2)c(=O)[nH]1	> 100 µM
CCOC(=O)CC[C@H](N)C(=O)N[C@@H](Cc1ccc(N(CCCl)CCCl)cc1)C(=O)OCC	18.1 µM
O=C1CC(Br)c2c(Br)sc(Br)c21 (stereo not given)	76.2 µM
CC(O)C(NC(=O)C(Cc1ccccc1)NC(=O)C(NC(=O)C(CCCCN)NC(=O)C(Cc1c[nH]c2ccccc12)NC(=O)C(Cc1ccc(O)cc1)NC(=O)C(Cc1ccc(Cl)cc1)NC(=O)C(N)Cc1ccccc1)C(C)O)C(N)=O (stereo not given) (H-F[Phe(4-Cl)]YWKTFT-NH2; configuration not given here)	34.1 µM
[O-][n+]1nc(N2CCOCC2)nc2ccccc21	> 100 µM

q: Any idea what its TGI is? The compound is O=C(O)CP(=S)(S)c1ccccc1 (stereo not given)
a: > 100 µM

q: Can you handle COc1cc(C(=O)NNC(=O)c2cc(Br)ccc2NC(=O)c2cccs2)cc(OC)c1OC next?
a: 74.3 µM

q: Repeat with CCCCCCCCCCCCCC1CCC(CC)N1 (stereo not given)
a: 30.7 µM

q: What do we get for NCCCC[C@@H]1NC(=O)[C@H]2CCCN2C(=O)[C@H](Cc2ccccc2)NC(=O)[C@H](Cc2ccccc2)CNC1=O ?
a: > 100 µM

q: Consider next the compound CC1=C2C(=O)O[C@@H](c3ccoc3)[C@]2(C)CCC1 in the same way.
a: > 100 µM

----------
Reported TGI values for the following compounds.
Tested on: EKVX NSCLC
Test: NCI tumour cell line growth inhibition, 48 h

These recorded examples may help you get a feel for the data.
Compound	Assay Target	TGI
N=c1c2ccccc2nc2oc3cc([N+](=O)[O-])ccc3n12	EKVX NSCLC	89 µM
Cc1c(N=Nc2ccccc2)c(-c2ccccc2)n(C2OC(CO)C(O)C(O)C2O)c(=S)c1C#N (centres undefined)	EKVX NSCLC	42.5 µM
CSC1=N/C(=C\c2ccc(C)cc2)C(=O)N1	EKVX NSCLC	> 100 µM

q: Field request: TGI | item: O=C1c2ccccc2-c2c1c1ccccc1c(=O)n2Cc1ccccc1
a: > 100 µM

q: Now consider CC[O-].CC[O-].O=C1c2ccccc2C(=O)c2c(O)ccc([O-])c21.O=C1c2ccccc2C(=O)c2c(O)ccc([O-])c21.[Ti+4] and answer again.
a: > 100 µM

q: What do you have for COc1ccc(CNc2ccn(C3OC(CO)C(O)C3O)c(=O)n2)cc1 (centres undefined) ?
a: > 100 µM

q: Let us now turn to CCOC(=O)c1cc(/C(=N\O)c2cc(OC)c(OC)c(OC)c2)n2cc(C)cc(C)c12
a: > 100 µM

q: Same question, O=C(c1cccc(O)c1O)c1cn(Cc2ccc(F)cc2)c2cccc(O)c12 this time
a: > 54.4 µM

q: And then COC(=O)c1ccccc1/C=C1\Cc2c(ccc3c2CCC3)C1=O , what is it?
a: > 100 µM

q: Same read-out for CC(=O)OC1C=C(C=O)C(O)(C=O)C2(C)CCCC(C)(C)C12 (centres undefined) ?
a: 6.13 µM

q: Try this compound next: O=C(Nc1ccc(Cl)cc1)c1cc(S(=O)(=O)Nc2n[nH]c(Nc3ccc4ccccc4c3)n2)c(SSc2cc(Cl)c(C(=O)Nc3ccc(Cl)cc3)cc2S(=O)(=O)Nc2n[nH]c(Nc3ccc4ccccc4c3)n2)cc1Cl
a: > 100 µM

q: Could you do the same for Cc1cc(C)nc(NS(=O)(=O)c2ccc(Nc3c4ccccc4nc4c(C(=O)Nc5ccc(S(=O)(=O)Nc6cc(C)on6)cc5)cccc34)cc2)n1 , please?
a: 66.7 µM

q: Item: CCN(CC)c1sc(N(CC)CC)c2c1SSSSS2
a: 5.54 µM

q: Now give it for NC(=O)NC1NC(=O)NC1=O (centres undefined) too.
a: > 100 µM

q: Try this compound too: O=C(O)CN(c1ccccc1)S(=O)(=O)c1ccccc1[N+](=O)[O-]
a: > 100 µM

q: Try the compound COc1ccc(CC2Cc3ccccc3CCN2)cc1OC (centres undefined)
a: > 50 µM

q: And for CC(=O)OC[C@]12CC[C@H]3[C@@H](C[C@H]4O[C@]45[C@@H](O)C=CC(=O)[C@]35C)[C@@H]1CC[C@@H]2[C@H](C)[C@H]1CC(C)=C(C)C(=O)O1 ?
a: 1.94 µM

q: Okay, and CC(C)c1ccc(C(=O)Nc2sc3c(c2C(N)=O)CCC(=O)C3)cc1 ?
a: 5.34 µM

q: What would you report for CC(=O)OC1CC(O)C23COC(O)C1(C)C2CC(O)C1(C)C3C(=O)C(O)C2(C)C(c3ccoc3)CC3OC321 (centres undefined) ?
a: > 100 µM

q: What about CC1=CC[C@H](C[C@H](C#CCCCC2OCCO2)O[Si](C(C)C)(C(C)C)C(C)C)C(=O)CC1 ?
a: > 100 µM

q: Now the same for C=C(C)C1CC=C(C)C(=O)C1 (centres undefined)
a: > 100 µM

q: // repeat for CCOc1cccc(C=Nc2ccccc2SSc2ccccc2N=Cc2cccc(OCC)c2O)c1O and report
a: 19 µM

q: Now consider COc1cc(OC(=O)c2c(O)cc(O)c(O)c2C)cc(C)c1C(=O)Oc1cc(C)c(C(=O)O)c(O)c1 and answer again.
a: > 100 µM

q: Also check Cc1c2c(cc3c1C(=O)C(=O)C([C@@H](C)CO)=C3O)C(C)(C)CCC2
a: > 100 µM

q: Same read-out for CC(NC(=O)OCc1ccccc1)NC(=O)OC(C)(C)C (centres undefined) ?
a: > 100 µM

q: Thanks! And COc1c2c(cc3nc4ccccc4nc13)CCC(C(C)(C)O)C2 (centres undefined) ?
a: > 100 µM

q: What about O=c1[nH]c2cccc([N+](=O)[O-])c2c(=O)n1-c1ccc(Cl)cc1 ?
a: 28 µM

q: Repeat with COc1nn(Cc2ccccn2)c2ccc([N+](=O)[O-])cc12
a: > 100 µM

q: Same again, this time with CN(C)CCn1c(=O)c2ccc(NCCNCCO)c3c(=O)c4ccccc4n(c1=O)c23
a: 2.41 µM

----------
Tested on: DU-145 prostate
Assay: NCI tumour cell line growth inhibition, 48 h
Readout Type: TGI

Compound	Assay Target	Readout Type	Reported
c1ccc(C2=NNC3c4ccccc4-c4ccccc4N3C2)cc1 (centres undefined)	DU-145 prostate	TGI	> 100 µM

q: For the compound CCCCNC(=S)Nc1nc(C(=O)NNC(=S)NCC)cs1 , what TGI is on record?
a: > 100 µM

q: // query: C1C2CC3CC1CC(c1nn4c(C56CC7CC(CC(C7)C5)C6)nnc4s1)(C2)C3
a: > 100 µM

q: Again, but for CCCCCCCC(CC(=O)NC(CO)C(=O)NC(CO)CC(C)C)OC(=O)CC(CCCCCCC)OC(=O)CC(CCCCCCC)OC1OC(C)C(O)C(OC2OC(C)C(O)C(OC(C)=O)C2O)C1O (centres undefined)
a: 23.4 µM

----------
Tested on: SF-539 CNS
Test: NCI tumour cell line growth inhibition, 48 h; in the data active = GI50 below about 0.43 µM; inactive = the rest
# valid calls are 1 (active), 0 (inactive); nothing else

Solved cases (5 shown):
Compound	Category
Cc1ccc(C(=NN=C(N)N)c2ccc(C)cc2)cc1	0
CC1CN1CC(O)C(O)CN1CC1C (configuration not stated)	0
N.N.N.N.N.O=C([O-])c1nn[n-]n1.[Cl-].[Co+3]	0
CCC#CC[C@H]1C/C=C2/C(=O)C=C[C@@H]2C/C=C\CCCC(=O)O1	0
CCN1C(=O)CNc2ncc(-c3ccc(-c4ncn[nH]4)nc3C)nc21	1

q: Assay result, entry CN(C)CCCn1c2c(c3ccccc3c1=O)C(=O)c1ccccc1-2 — outcome?
a: 0

q: COC(=O)Nc1nc2ccc(Oc3ccc(NC(=O)Nc4ccccc4)cc3)cc2[nH]1 ?
a: 1

q: Request: Fc1cc(F)c(COc2cc(Cn3cnc4c(Cl)nc(Cl)nc43)ccc2C23CC4CC(CC(C4)C2)C3)cc1F
a: 0

q: And for COc1cc[nH]c1/C=C1\C(=O)Nc2ccccc21 ?
a: 0

q: How about CCN(CC)c1sc(N(CC)CC)c2c1SSSSS2 ?
a: 0

q: Lookup CCS(=O)(=O)c1ccc(OC)c(Nc2ncc(-c3cccc(OC)c3)o2)c1
a: 0

q: Now consider COc1ccc2c(c1)C(=O)c1c-2n(CCCn2ccnc2)c(=O)c2ccccc12 .
a: 1
